Numbers sourced from ChEMBL document CHEMBL3400008.

assay_overview: Oral bioavailability in cynomolgus monkey
Assay type: ADME, organism-based, Macaca fascicularis
assay_context: in vivo
experimental_readout: bioavailability (%)
Give bare numbers, in %.

# bioavailability of Cc1c(NC(=O)c2cc3c(s2)CCCC3)cccc1-c1cn(C)c(=O)c(Nc2ccc([C@@H]3C(=O)N(C)CCN3C)cc2)n1 = 16

====

system_tested: Tyrosine-protein kinase BTK (Homo sapiens)
Sequence (Q06187 whole entry): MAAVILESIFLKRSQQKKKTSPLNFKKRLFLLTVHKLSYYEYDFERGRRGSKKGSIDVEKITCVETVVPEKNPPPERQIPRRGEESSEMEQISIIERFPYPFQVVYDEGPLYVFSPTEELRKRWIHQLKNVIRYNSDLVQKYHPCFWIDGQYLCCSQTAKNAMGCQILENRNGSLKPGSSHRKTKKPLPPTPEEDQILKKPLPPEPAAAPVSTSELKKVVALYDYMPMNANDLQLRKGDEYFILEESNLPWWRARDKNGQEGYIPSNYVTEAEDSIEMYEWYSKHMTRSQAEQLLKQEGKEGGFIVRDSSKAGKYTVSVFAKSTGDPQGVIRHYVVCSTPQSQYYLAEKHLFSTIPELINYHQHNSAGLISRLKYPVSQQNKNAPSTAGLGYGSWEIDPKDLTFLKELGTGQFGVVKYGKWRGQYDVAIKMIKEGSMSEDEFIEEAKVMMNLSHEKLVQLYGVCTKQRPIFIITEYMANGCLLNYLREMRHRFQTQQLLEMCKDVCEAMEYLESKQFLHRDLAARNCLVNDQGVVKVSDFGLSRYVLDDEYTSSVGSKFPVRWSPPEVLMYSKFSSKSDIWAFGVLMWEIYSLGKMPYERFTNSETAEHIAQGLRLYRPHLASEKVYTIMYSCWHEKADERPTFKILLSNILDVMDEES
assay_overview: Inhibition of BTK (unknown origin) after 1 hr by FRET assay
experimental_readout: IC50 (µM)
Answers are plain numbers, in µM.

# IC50 of Cc1ccc(C(=O)Nc2cccc(-c3cn(C)c(=O)c(Nc4ccc(C(=O)N5CCOCC5)cc4)n3)c2C)cc1 = 0.86

Batch: IC50 for all items listed.
1. CCc1ccc(C(=O)Nc2cccc(-c3cn(C)c(=O)c(Nc4ccc(C(=O)N5CCOCC5)cc4)n3)c2C)cc1
2. Cc1c(NC(=O)c2ccccc2)cccc1-c1cn(C)c(=O)c(Nc2ccc(C(=O)N3CCOCC3)cc2)n1

1: 0.225; 2: 4.6

====

assay_overview: Oral bioavailability in dog compound administered as solution in 60% polyethylene glycol 400 in water
Type: ADME, organism-based, Canis lupus familiaris
assay_context: in vivo
experimental_readout: bioavailability (%)
Numbers only, in %.

# bioavailability of Cc1c(NC(=O)c2cc3c(s2)CCCC3)cccc1-c1cn(C)c(=O)c(Nc2ccc([C@@H]3C(=O)N(C)CCN3C)cc2)n1 = 35

====

Tyrosine-protein kinase BTK (Mus musculus, UniProt P35991) IC50 data
Sequence (P35991 whole entry): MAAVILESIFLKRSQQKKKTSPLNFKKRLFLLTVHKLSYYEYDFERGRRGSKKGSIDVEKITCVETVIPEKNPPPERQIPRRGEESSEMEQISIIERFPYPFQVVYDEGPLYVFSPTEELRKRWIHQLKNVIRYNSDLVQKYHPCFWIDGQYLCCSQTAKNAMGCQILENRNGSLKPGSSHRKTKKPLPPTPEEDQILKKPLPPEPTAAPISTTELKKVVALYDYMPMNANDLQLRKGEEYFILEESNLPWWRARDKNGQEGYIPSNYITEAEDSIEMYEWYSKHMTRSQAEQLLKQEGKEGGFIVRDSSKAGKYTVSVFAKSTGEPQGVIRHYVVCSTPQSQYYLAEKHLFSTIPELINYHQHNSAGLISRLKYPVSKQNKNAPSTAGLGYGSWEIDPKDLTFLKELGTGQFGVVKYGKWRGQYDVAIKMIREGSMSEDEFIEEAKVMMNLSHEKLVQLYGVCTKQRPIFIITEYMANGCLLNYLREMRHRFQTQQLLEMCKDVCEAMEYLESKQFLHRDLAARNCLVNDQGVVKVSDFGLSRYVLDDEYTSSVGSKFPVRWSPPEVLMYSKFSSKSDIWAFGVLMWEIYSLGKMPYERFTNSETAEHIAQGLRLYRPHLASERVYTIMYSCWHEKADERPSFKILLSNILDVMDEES
One number for each entry, in µM.

In the examples that follow, each entry is paired with its recorded IC50.
# IC50 of Cc1c(NC(=O)c2cc3c(s2)CCCC3)cccc1-c1cn(C)c(=O)c(Nc2ccc3[nH]ccc3c2)n1 = 1.1

# IC50 of Cc1c(NC(=O)c2cnc(C(C)(C)C)nc2)cccc1-c1cn(C)c(=O)c(Nc2ccc(C(=O)N3CCOCC3)cc2)n1 = 3.7

# IC50 of Cc1c(NC(=O)c2ccc(C(C)(C)C)nc2)cccc1-c1cn(C)c(=O)c(Nc2ccc(C(=O)N3CCOCC3)cc2)n1 = 3.5

// moving on: another record for IC50
# IC50 of Cc1c(NC(=O)c2cc3c(s2)CCCC3)cccc1-c1cn(C)c(=O)c(Nc2cccnc2)n1 = 5

====

assay_overview: Clearance in dog
Type: ADME, organism-based, Canis lupus familiaris
assay_context: in vivo
experimental_readout: clearance (mL/min/kg)
Numbers only, in mL/min/kg.

# clearance of Cc1c(NC(=O)c2cc3c(s2)CCCC3)cccc1-c1cn(C)c(=O)c(Nc2ccc([C@@H]3C(=O)N(C)CCN3C)cc2)n1 = 14

====

assay_overview: Oral bioavailability in rat compound administered as solution in 20% (v/v) cremophor EL and 10% (v/v) ethanol in water
Format: ADME, organism-based
assay_context: in vivo
Outcome label depends on bioavailability relative to 40%: at/above gives MET, below gives NOT MET.

In plain terms: is recorded bioavailability at least 40% for Cc1c(NC(=O)c2cc3c(s2)CCCC3)cccc1-c1cn(C)c(=O)c(Nc2cccnc2)n1 ?
MET

In plain terms: is recorded bioavailability at least 40% for Cc1c(NC(=O)c2cc3c(s2)CCCC3)cccc1-c1cn(C)c(=O)c(Nc2ccncn2)n1 ?
NOT MET

In plain terms: is recorded bioavailability at least 40% for Cc1c(NC(=O)c2cc3c(s2)CCCC3)cccc1-c1cn(C)c(=O)c(Nc2ccc(C3CCN(C)CC3)cc2)n1 ?
NOT MET

In plain terms: is recorded bioavailability at least 40% for Cc1c(NC(=O)c2cc3c(s2)CCCC3)cccc1-c1cn(C)c(=O)c(Nc2ccc([C@@H]3C(=O)N(C)CCN3C)cc2)n1 ?
NOT MET

Pending compound:
In plain terms: is recorded bioavailability at least 40% for Cc1c(NC(=O)c2cc3c(s2)CCCC3)cccc1-c1cn(C)c(=O)c(Nc2ccc(C(=O)N3CCOCC3)cc2)n1 ?
NOT MET
